Recorded pKd by entry
Target: T1, cynoNectin4-mFc (cyno, UniProt A0A2K5WES1 32-349)
T1 construct: Immobilized on the SPR chip; also called cyanoNectin4; not shown: mFc (mouse Fc)
T1 sequence: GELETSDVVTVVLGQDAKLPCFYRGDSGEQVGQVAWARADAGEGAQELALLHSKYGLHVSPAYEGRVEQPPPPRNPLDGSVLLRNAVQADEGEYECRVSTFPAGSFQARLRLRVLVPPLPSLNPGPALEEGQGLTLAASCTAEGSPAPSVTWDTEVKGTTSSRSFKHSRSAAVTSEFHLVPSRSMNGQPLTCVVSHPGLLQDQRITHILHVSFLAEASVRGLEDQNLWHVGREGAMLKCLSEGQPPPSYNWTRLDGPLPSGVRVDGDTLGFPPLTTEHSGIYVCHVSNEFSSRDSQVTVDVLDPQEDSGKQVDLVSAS
Assay procedure: SPR, cynoNectin4-mFc immobilized, pH 7.4
In textbook form, pKd equals minus log to base ten of the concentration in mol/L.

Worked set:
INSERT INTO measurements (binder, endpoint_value) VALUES
  ('BAP-143-00-02 (antibody, V domains shown, Used as a conjugate with a linker payload (CAB ADC)) VH: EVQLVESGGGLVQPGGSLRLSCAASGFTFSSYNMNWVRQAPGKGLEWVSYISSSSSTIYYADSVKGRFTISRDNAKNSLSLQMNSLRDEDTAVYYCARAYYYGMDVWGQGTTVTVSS VL: DIQMTQSPSSVSASVGDRVTITCRASQGISGWLAWYQQKPGKAPKFLIYAASTLQSGVPSRFSGSGSGTDFTLTISSLQPEDFATYYCQQANSEPPTFGGGTKVEIK', 8.23),
  ('BAP-143-00-04 (antibody, V domains shown, Used as a conjugate with a linker payload (CAB ADC)) VH: EVQLVESGGGLVQPGGSLRLSCAASGFTFSSYNDNWVRQAPGKGLEWVSYISSSSSTIYYADSVKGRFTISRDNAKNSLSLQMNSLRDEDTAVYYCARAYYYGMDVWGQGTTVTVSS VL: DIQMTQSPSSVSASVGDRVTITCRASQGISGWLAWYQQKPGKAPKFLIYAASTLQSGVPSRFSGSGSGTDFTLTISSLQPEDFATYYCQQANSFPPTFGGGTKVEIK', 8.88),
  ('BAP-143-00-03 (antibody, V domains shown, Used as a conjugate with a linker payload (CAB ADC)) VH: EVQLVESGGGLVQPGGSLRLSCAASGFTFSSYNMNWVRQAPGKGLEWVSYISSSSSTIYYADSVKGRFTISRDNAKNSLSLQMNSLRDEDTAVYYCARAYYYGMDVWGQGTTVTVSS VL: DIQMTQSPSSVSASVGDRVTITCRASQGISGWLAWYQQKPGKAPKFLIYAASTLQSGVPSRFSGSGSGTDFTLTISSLQPEDFATYYCQQANSFPDTFGGGTKVEIK', 8.41);

pKd reading for BAP-143-wildtype (antibody, V domains shown, 150 kDa used in SPR; also called BAP143-00-00; benchmark (BM)) VH: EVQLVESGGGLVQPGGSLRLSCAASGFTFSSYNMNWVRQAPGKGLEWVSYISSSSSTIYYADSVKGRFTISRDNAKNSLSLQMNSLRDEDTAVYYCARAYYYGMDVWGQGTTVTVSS VL: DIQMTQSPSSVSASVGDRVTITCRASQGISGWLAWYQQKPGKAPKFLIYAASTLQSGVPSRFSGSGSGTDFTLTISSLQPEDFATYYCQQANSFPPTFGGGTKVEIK : 9.48
